The reader will find reported protein stability index values listed item by item below.
B1: STEAP1 (parent)
chain: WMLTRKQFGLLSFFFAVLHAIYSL

Variants of: B1
Assay method text: protein stability index of a GFP-peptide fusion (GPS, HEK-293T) (PSI 1-6); higher = more stable;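 note: lentivirally expressed fusions sorted by FACS into six bins by GFP to DsRed ratio, PSI derived from sequencing read proportions per bin multiplied by bin number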
Run conditions: c terminus: a fixed tail appended
Just the number, please, no unit attached.

Example results:
INSERT INTO assay_data (variant_label, readout, numeric_result) VALUES
  ('A20G', 'protein stability index', 2.13),
  ('S23E', 'protein stability index', 1.49),
  ('F15A', 'protein stability index', 1.82);

Task item: I have this variant here, `Y22Q` , and I need its recorded protein stability index.
Reply: 2.21

Task item: I have this variant here, `L3S` , and I need its recorded protein stability index.
Reply: 1.66

Task item: I have this variant here, `I21F` , and I need its recorded protein stability index.
Reply: 2.26

Task item: I have this variant here, `G9I` , and I need its recorded protein stability index.
Reply: 1.83

Task item: I have this variant here, `A20K` , and I need its recorded protein stability index.
Reply: 1.78

Task item: I have this variant here, `F15D` , and I need its recorded protein stability index.
Reply: 2.78

Task item: I have this variant here, `L11T` , and I need its recorded protein stability index.
Reply: 1.95

Task item: I have this variant here, `R5W` , and I need its recorded protein stability index.
Reply: 2.1

Task item: I have this variant here, `S12F` , and I need its recorded protein stability index.
Reply: 1.9

Task item: I have this variant here, `K6D` , and I need its recorded protein stability index.
Reply: 1.18

Task item: I have this variant here, `H19E` , and I need its recorded protein stability index.
Reply: 1.65

Task item: I have this variant here, `T4W` , and I need its recorded protein stability index.
Reply: 1.89
